Measured values drawn from patent US20250195513A1 for this set.

Target: IRAK4 (Homo sapiens, UniProt Q9NWZ3)
Construct: endogenous in cells; host or cells: Karpas299
Sequence (Q9NWZ3 whole entry): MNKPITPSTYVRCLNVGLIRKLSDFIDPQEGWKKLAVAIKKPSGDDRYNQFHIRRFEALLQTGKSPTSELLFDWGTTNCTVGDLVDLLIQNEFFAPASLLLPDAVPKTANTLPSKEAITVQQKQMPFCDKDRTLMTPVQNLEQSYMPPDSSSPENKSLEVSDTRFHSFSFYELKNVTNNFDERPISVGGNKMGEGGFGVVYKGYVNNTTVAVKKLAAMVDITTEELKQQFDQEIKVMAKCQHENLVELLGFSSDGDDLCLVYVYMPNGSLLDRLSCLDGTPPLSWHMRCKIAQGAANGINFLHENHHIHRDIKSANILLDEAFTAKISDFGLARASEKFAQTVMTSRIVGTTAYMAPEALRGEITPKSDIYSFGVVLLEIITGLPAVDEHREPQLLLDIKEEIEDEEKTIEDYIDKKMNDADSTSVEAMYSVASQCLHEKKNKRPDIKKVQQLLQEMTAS
Assay: IRAK4 Degradation Assay (Karpas299, HTRF/TR-FRET)
Format: cell-based
Settings: Karpas-299 cells, 5 h treatment; maximum percentage of degradation; read-out: IRAK4 in Karpas-299 (5 h) Dmax (%)
recorded-metric: Dmax (%)

{"molecule": "COC[C@@H]1CN([C@H]2CC[C@H](n3cc4cc(NC(=O)c5ccc6cc(C#N)cnn56)c(C(C)(C)O)cc4n3)CC2)CCN1C1CN(c2cc(F)c([C@H]3CCC(=O)NC3=O)c(F)c2)C1 [Example 387]", "tested-system": "IRAK4 (Homo sapiens, UniProt Q9NWZ3)", "unit-label": "%", "observed-value": 90}
{"molecule": "COC[C@@H]1CN([C@H]2CC[C@H](n3cc4cc(NC(=O)c5ccc6cc(C#N)cnn56)c(C(C)(C)O)cc4n3)CC2)CCN1C1CCN(c2cc(F)c([C@H]3CCC(=O)NC3=O)c(F)c2)CC1 [Example 319]", "tested-system": "IRAK4 (Homo sapiens, UniProt Q9NWZ3)", "unit-label": "%", "observed-value": 95}
{"molecule": "CC(C)(O)c1cc2nn(C34CC(N5CCN(CCC6CCN(c7cc(F)c([C@H]8CCC(=O)NC8=O)c(F)c7)CC6)CC5)(C3)C4)cc2cc1NC(=O)c1ccc2cc(C#N)cnn12 [Example 349]", "tested-system": "IRAK4 (Homo sapiens, UniProt Q9NWZ3)", "unit-label": "%", "observed-value": 94}
{"molecule": "O=C1CC[C@H](c2c(F)cc(N3CC(C(=O)N4CCN([C@H]5CC[C@H](n6cc(NC(=O)c7coc(-c8ccnc(NCC(F)(F)F)c8)n7)c(C(F)F)n6)CC5)CC4)C3)cc2F)C(=O)N1 [Example 16]", "tested-system": "IRAK4 (Homo sapiens, UniProt Q9NWZ3)", "unit-label": "%", "observed-value": 96}
{"molecule": "Cc1cc(-c2nc(C(=O)Nc3cn(-c4ccc(N5CCN(C(=O)C6CN(c7ccc(N8CCC(=O)NC8=O)cc7)C6)CC5)nc4)nc3C(N)=O)co2)ccn1 [Example 31]", "tested-system": "IRAK4 (Homo sapiens, UniProt Q9NWZ3)", "unit-label": "%", "observed-value": 89}
{"molecule": "CC(C)(O)c1cc2nn([C@H]3CC[C@H](N4CCN(C(=O)[C@@H]5CCN(c6cc(F)c([C@H]7CCC(=O)NC7=O)c(F)c6)C5)CC4)CC3)cc2cc1NC(=O)c1cccc(C(F)(F)F)n1 [Example 39]", "tested-system": "IRAK4 (Homo sapiens, UniProt Q9NWZ3)", "unit-label": "%", "observed-value": 96}
{"molecule": "[2H]C([2H])([2H])Oc1cc2nn([C@H]3CC[C@H](N4CCN(C(=O)C5CN(c6cc(F)c([C@H]7CCC(=O)NC7=O)c(F)c6)C5)CC4)CC3)cc2cc1NC(=O)c1cccc(C(F)(F)F)n1 [Example 165]", "tested-system": "IRAK4 (Homo sapiens, UniProt Q9NWZ3)", "unit-label": "%", "observed-value": 97}
{"molecule": "Cc1cc(C2CCC(=O)NC2=O)c(F)cc1[C@H]1C[C@@H](N2CCN([C@H]3CC[C@H](n4cc5cc(NC(=O)c6ccc7cc(C#N)cnn67)c(C(C)(C)O)cc5n4)CC3)CC2)C1 (stereo partly shown) [Example 296]", "tested-system": "IRAK4 (Homo sapiens, UniProt Q9NWZ3)", "unit-label": "%", "observed-value": 91}
{"molecule": "O=C1CC[C@H](c2c(F)cc(N3CC(C(=O)N4CCN(c5ccc(-n6cc(NC(=O)c7coc(-c8ccnc(NCC(F)(F)F)c8)n7)c(C(F)F)n6)cn5)CC4)C3)cc2F)C(=O)N1 [Example 29]", "tested-system": "IRAK4 (Homo sapiens, UniProt Q9NWZ3)", "unit-label": "%", "observed-value": 76}
{"molecule": "O=C1CCC(c2ccc(N3CC(C(=O)N4CCN([C@H]5CC[C@H](n6cc(NC(=O)c7coc(-c8ccnc(NCC(F)(F)F)c8)n7)c(C(F)F)n6)CC5)CC4)C3)cc2)C(=O)N1 (stereo partly shown) [Example 175]", "tested-system": "IRAK4 (Homo sapiens, UniProt Q9NWZ3)", "unit-label": "%", "observed-value": 88}
